- test target: CathepsinG, from human neutrophils (Homo sapiens, UniProt P08311)
- Sequence (P08311 21-244): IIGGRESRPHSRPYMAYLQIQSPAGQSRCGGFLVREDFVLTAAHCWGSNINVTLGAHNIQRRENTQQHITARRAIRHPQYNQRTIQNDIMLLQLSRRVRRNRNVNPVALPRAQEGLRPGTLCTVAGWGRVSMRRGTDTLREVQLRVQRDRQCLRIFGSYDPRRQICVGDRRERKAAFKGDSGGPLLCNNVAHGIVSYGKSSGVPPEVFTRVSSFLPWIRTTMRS
- experimental protocol: Enzymatic assay, cathepsin G
- setup conditions: Cathepsin G IC50
Where a SMILES comes first, the peptide text is derived from it.
Property: IC50; scope: individual compounds
// return the numeric value with its unit appended

compound	IC50
CC[C@H](C)[C@@H]1NC(=O)[C@@H]2CCCN2C(=O)[C@@H]2CCCN2C(=O)[C@H](CC(=O)O)NC(=O)[C@H](CO)NC(=O)[C@H](CCCCN)NC(=O)[C@H]([C@@H](C)O)NC(=O)[C@@H]2CSSC[C@H](NC1=O)C(=O)N[C@@H](CO)C(=O)N[C@H]([C@H](C)O)C(=O)N1CCC[C@H]1C(=O)N[C@@H](Cc1ccccc1)C(=O)N2 [Ex. 72] (HELM PEPTIDE1{C.S.[dT].P.F.C.T.K.S.D.P.P.I}$PEPTIDE1,PEPTIDE1,1:R3-6:R3|PEPTIDE1,PEPTIDE1,1:R1-13:R2$$$V2.0)	87 nM

Turning now to a further record.
Lab note: compound CCCC[C@@H]1NC(=O)[C@H](CCCNC(=N)N)NC(=O)[C@@H]2CCCN2C(=O)[C@H]2CCCN2C(=O)[C@H](Cc2ccccc2)NC(=O)[C@H](CCCC)NC(=O)[C@H]([C@@H](C)CC)NC(=O)[C@@H]2CCCN2C(=O)[C@@H]2CCCN2C(=O)[C@H](CC(=O)O)NC(=O)[C@H](CO)NC(=O)[C@H](CCCCN)NC(=O)[C@H]([C@@H](C)O)NC1=O [Ex. 8] (HELM PEPTIDE1{R.[Nle].T.K.S.D.P.P.I.[Nle].F.[dP].P}$PEPTIDE1,PEPTIDE1,1:R1-13:R2$$$V2.0) tested on CathepsinG, from human neutrophils (Homo sapiens, UniProt P08311); recorded IC50 was 126 nM

----------
Form field: Tryptase at 100 μM % (one value per entry).
- Tested on: Tryptase, from human lung
- experimental protocol: Enzymatic assay, tryptase
- setup conditions: at 100 μM
Where a SMILES comes first, the peptide text is derived from it.
Could you give me the number in %? Just the number is fine.

molecule	unit spec	Tryptase at 100 μM %
CC[C@H](C)[C@@H]1NC(=O)[C@@H]2CCCN2C(=O)[C@@H]2CCCN2C(=O)[C@H](CC(=O)O)NC(=O)[C@H](CO)NC(=O)[C@H](CCCCN)NC(=O)[C@H]([C@@H](C)O)NC(=O)[C@@H]2CSSC[C@H](NC1=O)C(=O)N[C@@H](CC(N)=O)C(=O)N1CCC[C@@H]1C(=O)N1CCC[C@H]1C(=O)N[C@@H](C1CCCCC1)C(=O)N2 [Ex. 37] (HELM PEPTIDE1{[O=C([C@@H](N[*:1])C1CCCCC1)[*:2]].C.T.K.S.D.P.P.I.C.N.[dP].P}$PEPTIDE1,PEPTIDE1,2:R3-10:R3|PEPTIDE1,PEPTIDE1,1:R1-13:R2$$$V2.0)	%	56

Entry under test: CC[C@H](C)[C@@H]1NC(=O)[C@@H]2CCCN2C(=O)[C@@H]2CCCN2C(=O)[C@H](CC(=O)O)NC(=O)[C@H](CO)NC(=O)[C@H](CCCCN)NC(=O)[C@H]([C@@H](C)O)NC(=O)[C@H](CCC(=O)O)NC(=O)[C@H](CCCNC(=N)N)NC(=O)[C@@H]2CCCN2C(=O)[C@H]2CCCN2C(=O)[C@H](Cc2ccccc2)NC(=O)[C@H](CCCNC(=N)N)NC1=O [Ex. 7] (HELM PEPTIDE1{R.E.T.K.S.D.P.P.I.R.F.[dP].P}$PEPTIDE1,PEPTIDE1,1:R1-13:R2$$$V2.0) . Its Tryptase at 100 μM % was 1.5
